Cited source for all entries: ChEMBL document CHEMBL6127073

# tested.target: Nucleoprotein (Severe acute respiratory syndrome coronavirus 2)
# assay.remarks: Binding affinity to wild type SARS-CoV-2 N-pro assessed as dissociation constant by MST analysis
pKd: −log10 of the molar value.
observable: pKd

>  <smiles.str>
CCN1Cc2cc(OC)c(OC)cc2-c2cccc(Nc3ncnc4c3nnn4Cc3ccccc3)c21

>  <numeric.readout>
5.27

$$$$

###

# assay.remarks: Cytotoxicity against African green monkey Vero E6 cells after 72 hrs by CCK8 assay
# Format: toxicity, cell-based, Vero C1008
# measurement.context: chlorocebus sabaeus
observable: CC50 at 72 h

>  <smiles.str>
CCN1Cc2cc(OC)c(OC)cc2-c2cccc(Nc3ncnc4c3nnn4Cc3ccccc3)c21

>  <observable>
CC50 at 72 h

>  <result>
> 200 µM

$$$$

###

# tested.target: Nucleoprotein (Severe acute respiratory syndrome coronavirus 2)
# assay.remarks: Binding affinity to SARS-CoV-2 N-pro assessed as dissociation constant in presence of ssRNA by MST analysis
pKd: −log10 of the molar value.
observable: pKd

>  <smiles.str>
CCN1Cc2cc(OC)c(OC)cc2-c2cccc(Nc3ncnc4c3nnn4Cc3ccccc3)c21

>  <observable>
pKd

>  <numeric.readout>
4.08

$$$$

###

# assay.remarks: Selectivity index, ratio of CC50 for cytotoxicity against African green monkey Vero E6 cells to EC50 for antiviral activity against SARS-CoV-2 107 infected in African green monkey Vero E6 cells
# Type: toxicity, cell-based
# measurement.context: read-out: Ratio CC50/EC50

>  <smiles.str>
CCN1Cc2cc(OC)c(OC)cc2-c2cccc(Nc3ncnc4c3nnn4Cc3ccccc3)c21

>  <selectivity ratio>
> 17.7

$$$$
